Give measured pKa for each item. Keep answers brief.
# assay.system: WT Shaker K channel (Drosophila melanogaster, UniProt P08510, DEL6-46)
# Sequence (P08510 other isoform, or with tags, fused parts or gaps DEL6-46): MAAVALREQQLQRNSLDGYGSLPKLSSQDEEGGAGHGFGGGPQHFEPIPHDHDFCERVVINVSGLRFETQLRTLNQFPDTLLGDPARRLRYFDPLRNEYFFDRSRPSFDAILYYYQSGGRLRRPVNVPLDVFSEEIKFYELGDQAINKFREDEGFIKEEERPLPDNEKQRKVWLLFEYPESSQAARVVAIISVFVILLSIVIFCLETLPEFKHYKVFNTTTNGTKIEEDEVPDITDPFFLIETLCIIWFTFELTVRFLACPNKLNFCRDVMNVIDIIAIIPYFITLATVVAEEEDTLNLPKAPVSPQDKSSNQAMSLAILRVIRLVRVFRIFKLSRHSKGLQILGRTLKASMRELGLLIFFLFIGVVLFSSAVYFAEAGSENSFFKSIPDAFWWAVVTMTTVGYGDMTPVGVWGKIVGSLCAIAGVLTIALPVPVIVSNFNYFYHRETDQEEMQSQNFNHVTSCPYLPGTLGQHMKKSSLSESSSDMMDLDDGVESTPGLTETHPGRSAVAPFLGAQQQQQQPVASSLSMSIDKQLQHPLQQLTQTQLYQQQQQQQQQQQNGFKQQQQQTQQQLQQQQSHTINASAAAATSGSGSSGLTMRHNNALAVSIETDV
# assay.text: physchem
# Type: cell-based
# details: Drosophila melanogaster; from pH dependence of G(V) shift, 100 μM

| compound | readout.label | result |
| --- | --- | --- |
| CO/N=C1\CC2[C@](C)(C(=O)O)CCC[C@]2(C)c2cc(Br)c(C(C)C)cc21 (stereo partly drawn) | pKa | 6.1 |

Give measured pKa for every item shown.
1. CC(C)c1ccc2c(c1)CC[C@H]1[C@](C)(C(=O)O)CCC[C@]21C [DHAA, dehydroabietic acid]
2. C[C@@]1(C(=O)O)CCC[C@]2(C)c3cc(Cl)c(Cl)c(Cl)c3CCC12 (stereo partly drawn)

Ans:
1. 7.2
2. 6.8
